Each recorded value in this set is attributed to patent US11072588B2.

tested on: S. aureus strain 85/2082; experiment: MIC, multi-resistant clinical isolate; format: cell-based, Staphylococcus aureus; details: Staphylococcus aureus, 85/2082, read-out: Antimicrobial activity (MIC)

[
  {
    "Compound": "CC(C)(C)c1cc(CC2(Cc3cc(C(C)(C)C)cc(C(C)(C)C)c3)C(=O)N(CCCCNC(=N)N)C(=O)N(CCCCNC(=N)N)C2=O)cc(C(C)(C)C)c1 [8(iii)]",
    "Unit Abbrev": "µg/mL",
    "MIC": 2
  },
  {
    "Compound": "NCCCCN1C(=O)N(CCCCN)C(=O)C(Cc2ccc(F)c3ccccc23)(Cc2ccc(F)c3ccccc23)C1=O [7(v)]",
    "Unit Abbrev": "µg/mL",
    "MIC": 4
  },
  {
    "Compound": "N=C(N)NCCCCN1C(=O)N(CCCCNC(=N)N)C(=O)C(Cc2cc(Br)cc(Br)c2)(Cc2cc(Br)cc(Br)c2)C1=O [8(ii)]",
    "Unit Abbrev": "µg/mL",
    "MIC": 2
  },
  {
    "Compound": "NCCCCN1C(=O)N(CCCCN)C(=O)C(Cc2cc(C(F)(F)F)cc(C(F)(F)F)c2)(Cc2cc(C(F)(F)F)cc(C(F)(F)F)c2)C1=O [7(vi)]",
    "Unit Abbrev": "µg/mL",
    "MIC": 16
  },
  {
    "Compound": "CC(C)(C)c1cc(CC2(Cc3cc(C(C)(C)C)cc(C(C)(C)C)c3)C(=O)N(CCCCN)C(=O)N(CCCCN)C2=O)cc(C(C)(C)C)c1 [7(iii)]",
    "Unit Abbrev": "µg/mL",
    "MIC": 2
  },
  {
    "Compound": "CC(C)(C)c1ccc(CC2(Cc3ccc(C(C)(C)C)cc3)C(=O)N(CCCCNC(=N)N)C(=O)N(CCCCNC(=N)N)C2=O)cc1 [Compound 8(i)]",
    "Unit Abbrev": "µg/mL",
    "MIC": 2
  },
  {
    "Compound": "N=C(N)NCCCCN1C(=O)N(CCCCNC(=N)N)C(=O)C(Cc2ccc3ccccc3c2)(Cc2ccc3ccccc3c2)C1=O [8(iv)]",
    "Unit Abbrev": "µg/mL",
    "MIC": 8
  }
]

###

Here the recorded MIC is given for each entry.
tested on: A. baumanii K55-13; assay: MIC, multi-resistant clinical isolate; type: cell-based, Acinetobacter baumannii; conditions: Acinetobacter baumannii, K5513, read-out: Antimicrobial activity (MIC)
Measured Attribute: MIC (µg/mL)

[
  {
    "Compound": "N=C(N)NCCCCN1C(=O)N(CCCCNC(=N)N)C(=O)C(Cc2ccc(F)c3ccccc23)(Cc2ccc(F)c3ccccc23)C1=O [8(v)]",
    "Measured Attribute": "MIC",
    "Unit Abbrev": "µg/mL",
    "Measured Result": 8
  },
  {
    "Compound": "NCCCCN1C(=O)N(CCCCN)C(=O)C(Cc2ccc(F)c3ccccc23)(Cc2ccc(F)c3ccccc23)C1=O [7(v)]",
    "Measured Attribute": "MIC",
    "Unit Abbrev": "µg/mL",
    "Measured Result": 32
  },
  {
    "Compound": "NCCCCN1C(=O)N(CCCCN)C(=O)C(Cc2cc(C(F)(F)F)cc(C(F)(F)F)c2)(Cc2cc(C(F)(F)F)cc(C(F)(F)F)c2)C1=O [7(vi)]",
    "Measured Attribute": "MIC",
    "Unit Abbrev": "µg/mL",
    "Measured Result": 32
  },
  {
    "Compound": "N=C(N)NCCCCN1C(=O)N(CCCCNC(=N)N)C(=O)C(Cc2cc(Br)cc(Br)c2)(Cc2cc(Br)cc(Br)c2)C1=O [8(ii)]",
    "Measured Attribute": "MIC",
    "Unit Abbrev": "µg/mL",
    "Measured Result": 8
  },
  {
    "Compound": "NCCCCN1C(=O)N(CCCCN)C(=O)C(Cc2cc(Br)cc(Br)c2)(Cc2cc(Br)cc(Br)c2)C1=O [7(ii)]",
    "Measured Attribute": "MIC",
    "Unit Abbrev": "µg/mL",
    "Measured Result": 16
  },
  {
    "Compound": "N=C(N)NCCCCN1C(=O)N(CCCCNC(=N)N)C(=O)C(Cc2ccc3ccccc3c2)(Cc2ccc3ccccc3c2)C1=O [8(iv)]",
    "Measured Attribute": "MIC",
    "Unit Abbrev": "µg/mL",
    "Measured Result": 32
  },
  {
    "Compound": "CC(C)(C)c1cc(CC2(Cc3cc(C(C)(C)C)cc(C(C)(C)C)c3)C(=O)N(CCCCNC(=N)N)C(=O)N(CCCCNC(=N)N)C2=O)cc(C(C)(C)C)c1 [8(iii)]",
    "Measured Attribute": "MIC",
    "Unit Abbrev": "µg/mL",
    "Measured Result": 4
  }
]
